// reported log10 IC50 per item
Target: h-DHODH (Homo sapiens)
Construct: endogenous in cells
Sequence (Q02127 whole entry): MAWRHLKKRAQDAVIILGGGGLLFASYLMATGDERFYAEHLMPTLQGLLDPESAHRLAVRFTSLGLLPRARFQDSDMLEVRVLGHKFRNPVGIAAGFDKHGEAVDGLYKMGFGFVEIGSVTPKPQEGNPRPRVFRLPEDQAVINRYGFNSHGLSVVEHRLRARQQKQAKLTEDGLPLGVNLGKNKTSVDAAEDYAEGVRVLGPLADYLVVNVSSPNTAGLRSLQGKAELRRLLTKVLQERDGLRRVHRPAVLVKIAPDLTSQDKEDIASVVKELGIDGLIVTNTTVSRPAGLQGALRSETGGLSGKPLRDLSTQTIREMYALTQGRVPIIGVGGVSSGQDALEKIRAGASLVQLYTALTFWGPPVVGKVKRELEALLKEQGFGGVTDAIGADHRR
Test: Dihydro-orotate dehydrogenase inhibition assay (U937 membrane preparations, DCIP reduction)
Settings: U937 membrane preparation
// units: nM (pre-log); metric: IC50; scale: log10

Below are worked cases with known answers.
                                   compound  result_number
0  CCCCOc1cccc(-c2cc(F)c(NC(=O)c3ccccc3C(=O)O)c(F)c2)c1 [Example 35]           1.08
1  O=C(O)c1ccccc1C(=O)Nc1c(F)cc(-c2cccc(OC3CCCC3)c2)cc1F [Example 41]           1.92
2  COc1cccc(-c2cc(F)c(NC(=O)c3ccccc3C(=O)O)c(F)c2)c1 [Example 1]           2.87
3  COc1ccc(Cl)c(-c2cc(F)c(NC(=O)c3ccccc3C(=O)O)c(F)c2)c1 [Example 45]           1.64
4  O=C(O)c1ccccc1C(=O)Nc1c(F)cc(-c2ccccc2Cl)cc1F [Example 8]           1.95

Kindly note the recorded log10 IC50 for Cc1c[nH]c2ccc(-c3cc(F)c(NC(=O)c4ccccc4C(=O)O)c(F)c3)cc12 [Example 63] , which is 1.34

Kindly note the recorded log10 IC50 for CCCOc1cccc(-c2cc(F)c(NC(=O)c3ccccc3C(=O)O)c(F)c2)c1 [Example 26] , which is 2.09

Ref: patent US8686048B2
